# assayedTarget: CCR4 (Homo sapiens, UniProt P51679)
# Construct: CEM Cells Endogenous Express CCR4; endogenous in cells; host or cells: CEM cells
# Sequence (P51679 1-360): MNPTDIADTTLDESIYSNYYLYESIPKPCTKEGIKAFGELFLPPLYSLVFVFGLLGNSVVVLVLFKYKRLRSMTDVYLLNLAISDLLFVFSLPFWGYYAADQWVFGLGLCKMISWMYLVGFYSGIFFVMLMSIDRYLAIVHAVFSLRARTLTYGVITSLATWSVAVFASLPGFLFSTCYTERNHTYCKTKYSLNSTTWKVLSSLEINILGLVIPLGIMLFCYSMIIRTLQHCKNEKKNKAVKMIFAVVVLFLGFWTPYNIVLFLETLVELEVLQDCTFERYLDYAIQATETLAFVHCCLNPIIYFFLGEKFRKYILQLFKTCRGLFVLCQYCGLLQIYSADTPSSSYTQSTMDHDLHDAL
# testDescription: CEM cell chemotaxis (migration) assay to CCL22 (MDC) in 100% Fetal Bovine Serum (FBS)
# Type: cell-based
# conditionSummary: CEM cells in 100% FBS with 1% HEPEs; recombinant human CCL22 0.1 nM; 37° C. 60 minutes
observable: IC50

Some solved cases for reference:
molecule: C[C@@H](Nc1nc(N2CCC(O[C@@H]3CNC[C@@H]3F)CC2)ncc1Cl)c1ccc(Cl)cc1Cl
IC50: < 0.1 µM

molecule: CC(Nc1nc(N2CCN(C(=O)[C@H]3CCC(=O)N3)CC2)ncc1Cl)c1c(F)cc(Cl)cc1F (some centres unmarked)
IC50: < 0.1 µM

molecule: C[C@@H](Nc1nc(N2CCN(C(=O)C3(C)CCN(C)C3)CC2)ncc1Cl)c1ccc(Cl)cc1Cl (some centres unmarked)
IC50: < 0.1 µM

molecule: C[C@H](Nc1nc(N2CCN(C(=O)[C@@H]3CCC(=O)N3)CC2)ncc1Cl)c1ccc(Cl)cc1Cl
IC50: > 1 µM

Summary for this molecule, `COc1cnc(N2CCN(C(=O)[C@H]3CCC(=O)N3)CC2)nc1N[C@H](C)c1ccc(Cl)cc1Cl` : IC50 is < 0.1 µM

Summary for this molecule, `C[C@@H](Nc1nc(N2CCN(C(=O)[C@H]3CCCN3CCC(=O)O)CC2)ncc1Cl)c1ccc(Cl)cc1Cl` : IC50 is < 0.1 µM

Summary for this molecule, `C[C@@H](Nc1nc(N2CCN(C(=O)[C@H]3CCC(=O)N3)CC2)nc(N)c1Cl)c1ccc(Cl)cc1Cl` : IC50 is < 0.1 µM

Summary for this molecule, `C[C@@H](Nc1nc(N2CCC(N(CCC(=O)O)C(=O)[C@H]3CCCN3)CC2)ncc1Cl)c1ccc(Cl)cc1Cl` : IC50 is > 1 µM

Summary for this molecule, `C[C@@H](Nc1nc(N2CCN(C(=O)[C@H]3CCC(=O)N3)CC2)ncc1OCC(F)(F)F)c1ccc(Cl)cc1Cl` : IC50 is 0.1 to 1 µM

Summary for this molecule, `Cc1nc(N2CCN(C(=O)[C@H]3CCCN3)CC2)nc(N[C@H](C)c2ccc(Cl)cc2Cl)c1Cl` : IC50 is < 0.1 µM

Summary for this molecule, `C[C@@H](Nc1nc(N2CC[C@H](NC(=O)[C@H]3CCCN3)[C@H](O)C2)ncc1OC(F)F)c1ccc(Cl)cc1Cl` : IC50 is < 0.1 µM

Summary for this molecule, C[C@@H](Nc1nc(N2CCN(C(=O)C3CCCC(=O)N3)CC2)ncc1Cl)c1ccc(Cl)cc1Cl (some centres unmarked) : IC50 is < 0.1 µM

Summary for this molecule, `C[C@@H](Nc1nc(N2CCN(C(=O)[C@H]3CCC(=O)N3)CC2)ncc1Cl)c1ccc(Cl)cc1Cl` : IC50 is < 0.1 µM

Summary for this molecule, `C[C@@H](Nc1nc(N2CCN(C(=O)[C@H](N)CO)CC2)ncc1Cl)c1ccc(Cl)cc1Cl` : IC50 is 0.1 to 1 µM
